biological target: human recombinant ghrelin receptor (GHS-R1a) (Homo sapiens, UniProt Q92847); construct: host or cells: CHO-K1; test: Calcium assay, CHO-K1 cells expressing hGHS-R1a (Fluo-4); assay type: cell-based; conditions: CHO-K1, relative to the Emax induced by MK-0677 (defined as 100%); read-out: hGHS-R1a Ca assay Emax/%
Sequence (Q92847 whole entry): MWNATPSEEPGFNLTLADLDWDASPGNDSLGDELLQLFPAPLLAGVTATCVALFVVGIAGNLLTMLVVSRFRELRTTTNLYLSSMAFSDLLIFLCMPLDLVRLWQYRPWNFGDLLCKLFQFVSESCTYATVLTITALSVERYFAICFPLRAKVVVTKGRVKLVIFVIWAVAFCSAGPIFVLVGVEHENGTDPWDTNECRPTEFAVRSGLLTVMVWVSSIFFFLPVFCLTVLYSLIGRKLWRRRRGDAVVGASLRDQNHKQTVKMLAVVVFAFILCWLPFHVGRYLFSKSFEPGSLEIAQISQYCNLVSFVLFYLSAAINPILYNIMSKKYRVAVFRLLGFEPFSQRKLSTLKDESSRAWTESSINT
measured_property: Emax (%)

{"columns": ["molecule", "unit_abbreviation", "Emax"],
 "data": [
  ["COc1ccc(COC[C@@H](NC(=O)C(C)(C)N)C(=O)N2CCCC3(C2)C(=O)N(C)CC3c2ccccc2)cc1 (single isomer, unassigned) [Example 6.0(ii)]", "%", 103],
  ["CN(C)C(=O)CN1CC(c2ccccc2)C2(CCCN(C(=O)[C@@H](COCc3ccccc3)NC(=O)C(C)(C)N)C2)C1=O (single isomer, unassigned) [Example 1.16]", "%", 101],
  ["CN1CC(c2ccccc2)C2(CCCN(C(=O)[C@@H](CCc3ccccc3)NC(=O)C(C)(C)N)C2)C1=O (single isomer, unassigned) [Example 1.28]", "%", 106]
]}

All values here come from patent US20130296358A1.
